- Tested on: brain homogenate
- measurement protocol: iron(II) ion-dependent peroxidation of brain homogenate
- Type: biochemical, OFA rats
- measurement parameters: rat brain homogenate in Krebs buffer; iron(II) initiated
What pIC50 was measured for each of the following?
// pIC50: -log10(molar conc.)

Enter pIC50 (test system brain homogenate) for O=C(NCCCCCC(=O)N1CCN(CCCc2ccccc2)CC1)c1cc(O)ccc1O
4.40

Enter pIC50 (test system brain homogenate) for O=C(O)CCCCNC(=O)c1cc(O)ccc1O
4.00

Enter pIC50 (test system brain homogenate) for O=C(O)CCCCCCCCCCCNC(=O)c1cc(O)ccc1O
5.32

Enter pIC50 (test system brain homogenate) for CCCCCCCCNC(=O)CCCCCNC(=O)c1cc(O)ccc1O
5.05

Enter pIC50 (test system brain homogenate) for CCOC(=O)CCCCCCCCCCNC(=O)c1cc(O)ccc1O
4.80

Enter pIC50 (test system brain homogenate) for Cc1c(C)c2c(c(C)c1O)CCC(C)(CCCC(C)CCCC(C)CCCC(C)C)O2 (stereo not drawn) [α-Tocopherol, reference compound]
5.15

Enter pIC50 (test system brain homogenate) for O=C(NCCCCCC(=O)N1CCN(c2cc(N3CCCC3)nc(N3CCCC3)n2)CC1)c1cc(O)ccc1O
5.48

Enter pIC50 (test system brain homogenate) for O=C(O)CCCCCNC(=O)c1cc(O)ccc1O
4.00

Enter pIC50 (test system brain homogenate) for O=C(O)CCCNC(=O)c1cc(O)ccc1O
4.00

Enter pIC50 (test system brain homogenate) for CCOC(=O)CCCCCCCCCCCNC(=O)c1cc(O)ccc1O
4.92
